- System: DLD1 NRF2-WT
- assay_protocol: drug sensitivity score (DSS) viability (DSS score); higher = more sensitive; extreme values may be limits of the assay
- experimental_conditions: 72 h; CellTiter-Glo viability
I'd appreciate it if you marked entries y when drug sensitivity score is lower than 10 and n when it is not.

molecule	category_label
Cc1nc(C(=O)NCC(=O)O)c(O)c2ccc(Oc3ccccc3)cc12 [Roxadustat]	y
Clc1ccccc1C(c1ccccc1)(c1ccccc1)n1cccn1 [TRAM-34]	y
CCOC(=O)CCNc1cc(N2CCc3ccccc3CC2)nc(-c2ccccn2)n1 [GSK-J4]	n
FC(F)c1nc2ccccc2n1-c1nc(N2CCOCC2)nc(N2CCOCC2)n1 [ZSTK474]	n
CCCN(CCC)C(=O)C1=Cc2ccc(-c3ccc(C(=O)N4CCCC4)cc3)cc2N=C(N)C1 [Motolimod]	y
Cc1ncc(-c2ccnc(Nc3ccc(S(C)(=O)=O)cc3)n2)n1C(C)C [AZD-5438]	n
CC(C)C[C@H](NC(=O)CNC(=O)c1cc(Cl)ccc1Cl)B(O)O [Ixazomib]	n
NC(=O)N1CCC(CC(=O)N2CCC([C@H]3c4ncc(Br)cc4CCc4cc(Cl)cc(Br)c43)CC2)CC1 [Lonafarnib]	n
Nc1nc2[nH]cnc2c(=S)[nH]1 [Thioguanine]	y

---

- Tested on: DLD1 NRF2-WT
- assay_protocol: drug sensitivity score (DSS) cytotoxicity (DSS score); higher = more toxic; extreme values may be limits of the assay
- experimental_conditions: 72 h; CellTox Green cytotoxicity
Measured drug sensitivity score, listed per entry.

compound	drug sensitivity score
O=C(/C=C\n1cnc(-c2cc(C(F)(F)F)cc(C(F)(F)F)c2)n1)NNc1cnccn1 [Selinexor]	1.5
Cc1nn(C)c(COc2ccc(N3CCN(S(=O)(=O)N(C)C)CC3)cc2)c1-c1cccc2c(CCCOc3cccc4ccccc34)c(C(=O)O)n(CCN3CCOCC3)c12	0
COCCNCc1ccc(-c2cc3nccc(Oc4ccc(NC(=S)NC(=O)Cc5ccc(F)cc5)cc4F)c3s2)nc1 [Glesatinib]	0
CC[C@@H]1C(=O)OC[C@@H]1Cc1cncn1C [Pilocarpine]	0
C[C@@H]1CCN(C(=O)CC#N)C[C@@H]1N(C)c1ncnc2[nH]ccc12 [Tofacitinib]	0
CC(C)C[C@H](NC(=O)[C@H](Cc1ccccc1)NC(=O)c1cnccn1)B(O)O [Bortezomib]	27.2
COC(=O)c1ccc([C@H]2c3[nH]c4ccccc4c3C[C@H](C(=O)OC)N2C(=O)CCl)cc1 [RSL3]	0
Sc1ncnc2nc[nH]c12 [Mercaptopurine]	0
CNC(=O)c1ccc(N2C(=S)N(c3ccc(C#N)c(C(F)(F)F)c3)C(=O)C2(C)C)cc1F [Enzalutamide]	0
O=C(NOCCO)c1ccc2cncn2c1Nc1ccc(I)cc1F [GDC-0623]	0
N#Cc1ccnc(N2C(=O)CC[C@H]2C(=O)N(c2cncc(F)c2)[C@H](C(=O)NC2CC(F)(F)C2)c2ccccc2Cl)c1 [Ivosidenib]	0
NC(=O)/C(=C/n1cnc(-c2cc(C(F)(F)F)cc(C(F)(F)F)c2)n1)c1cncnc1 [KPT-8602]	0
Cc1ncc(Cl)cc1NCc1ccc(C(=O)N[C@@H](CC2CCCC2)C(=O)NC2CC2)s1	0
CO[C@H](C(=O)[C@@H](O)[C@@H](C)O)[C@@H]1Cc2cc3cc(O[C@H]4C[C@@H](O[C@H]5C[C@@H](O)[C@H](O)[C@@H](C)O5)[C@@H](O)[C@@H](C)O4)c(C)c(O)c3c(O)c2C(=O)[C@H]1O[C@H]1C[C@@H](O[C@H]2C[C@@H](O[C@H]3C[C@](C)(O)[C@H](O)[C@@H](C)O3)[C@H](O)[C@@H](C)O2)[C@H](O)[C@@H](C)O1 [Plicamycin]	1.7
